test system: RIVA; assay: growth inhibition by drug alone (1 - RLU/untreated control) (fraction); higher = stronger inhibition; settings: 100 nM; time (day): 6; 177Lu-lilotomab satetraxetan 0 ug/ml
measuredEndpoint: growth inhibition by drug alone

N#CCNC(=O)c1ccc(-c2ccnc(Nc3ccc(N4CCOCC4)cc3)n2)cc1 = -0.56
CN1C(=O)C(Cc2c[nH]c3ccccc23)NC1=S (stereo not given) [Necrostatin-1] = -0.562
Nc1ncn([C@@H]2O[C@H](CO)[C@@H](O)[C@H]2O)c(=O)n1 [Azacitidine (Vidaza)] = -0.406
CCOc1cc2ncc(C#N)c(Nc3ccc(F)c(Cl)c3)c2cc1NC(=O)/C=C/CN(C)C [Pelitinib (EKB-569)] = -0.809
O=C1CN2Cc3c(ccc(Cl)c3Cl)N=C2N1 [Anagrelide] = -0.0326

* * *

Measured growth inhibition by drug plus 177Lu-lilotomab satetraxetan of individual entries
tested on: U-2932; experiment: growth inhibition by drug plus 177Lu-lilotomab satetraxetan (1 - RLU/untreated control) (fraction); higher = stronger inhibition; details: 1000 nM; time (day): 5; 177Lu-lilotomab satetraxetan 1 ug/ml
Counter-ions that a name gives are not always drawn.
measuredEndpoint: growth inhibition by drug plus 177Lu-lilotomab satetraxetan

CN(C)CCCCSC(=N)N = -0.0236
O=C(O)C1(C(=O)O)CCC1.[NH2-].[NH2-].[Pt+2] = 0.0793
CC[C@@H]1/C=C(\C)C[C@H](C)C[C@H](OC)[C@H]2O[C@@](O)(C(=O)C(=O)N3CCCC[C@H]3C(=O)O[C@H](/C(C)=C/[C@@H]3CC[C@H](Cl)[C@H](OC)C3)[C@H](C)[C@@H](O)CC1=O)[C@H](C)C[C@@H]2OC = 0.373
Cc1ccc(C(=O)Nc2ccc(CN3CCN(C)CC3)c(C(F)(F)F)c2)cc1C#Cc1cnc2cccnn12 = 0.844
CCOc1ccn(-c2ccc(F)cc2)c(=O)c1C(=O)Nc1ccc(Oc2ccnc(N)c2Cl)c(F)c1 = 0.162
Cn1cc(-c2ccc3nnc(Sc4ccc5ncccc5c4)n3n2)cn1 = 0.142
Cc1csc(-c2nnc(Nc3ccc(Oc4ncccc4-c4ccnc(N)n4)cc3)c3ccccc23)c1 = 0.344
C[C@H](NC(=O)Cc1cc(F)cc(F)c1)C(=O)N[C@H](C(=O)OC(C)(C)C)c1ccccc1 = 0.0285
CC(C)[C@H](C(=O)Nc1ccc(C(=O)NO)cc1)c1ccccc1 = 0.978
C[C@]1(O)C[C@@H](c2nc(-c3ccc4ccc(-c5ccccc5)nc4c3)c3c(N)nccn32)C1 = 0.0298
CNC(=O)c1ccc(C)c(-n2c(C)cc(OCc3ccc(F)cc3F)c(Br)c2=O)c1 = 0.213
Nc1nc(OCc2cc(Br)cs2)c2[nH]cnc2n1 = 0.025
CC(=O)O[C@]1(C(C)=O)CC[C@H]2[C@@H]3C[C@H](C)C4=CC(=O)CC[C@]4(C)[C@H]3CC[C@@]21C [Medroxyprogesterone acetate] = 0.224
Cc1c(CCOc2ccc(C(=O)O)cc2)c2cc(Cl)ccc2n1C(c1ccccc1)c1ccccc1 = 0.061
c1ccc2c(-c3cnn4cc(-c5ccc(N6CCNCC6)cc5)cnc34)ccnc2c1 = 0.0152
CS(=O)(=O)c1ccc(C(=O)Nc2ccc(Cl)c(-c3ccccn3)c2)c(Cl)c1 = 0.194
O=C(CCCCCCC(=O)Nc1ccccc1)NO [Vorinostat (SAHA)] = 0.786
CC#C[C@]1(O)CC[C@H]2[C@@H]3CCC4=CC(=O)CCC4=C3[C@@H](c3ccc(N(C)C)cc3)C[C@@]21C = 0.0416
C[C@]12CC[C@H](O)CC1=CC[C@@H]1[C@@H]2CC[C@]2(C)C(c3cccnc3)=CC[C@@H]12 = 0.0665
CCCC(CCC)C(=O)O [Valproic acid sodium salt (Sodium valproate)] = 0.0167
CC[C@H](CO)Nc1nc(NCc2ccccc2)c2ncn(C(C)C)c2n1 [Roscovitine (Seliciclib, CYC202)] = -0.0091
COc1cc2ncnc(Nc3ccc(F)c(Cl)c3)c2cc1NC(=O)/C=C/CN1CCCCC1 = -0.0838
O=C(CCCCCCC(=O)Nc1cccnc1)NO [Pyroxamide] = 0.472
CC(=O)c1c(C)c2cnc(Nc3ccc(N4CCNCC4)cn3)nc2n(C2CCCC2)c1=O = -0.0131
NC(=O)c1ccc(I)c([N+](=O)[O-])c1 = 0.0384
CC(C)C[C@@H](C(=O)N[C@H](C(=O)OC1CCCC1)c1ccccc1)[C@H](O)C(=O)NO = 0.0204
C#Cc1cccc(Nc2ncnc3cc(OCCOC)c(OCCOC)cc23)c1 [Erlotinib HCl] = 0.691
COc1ccc(COc2cc3oc(=O)c4cc(C(C)O)ccc4c3cc2OC)cc1 (stereo not given) = 0.013
CN(c1ncccc1CNc1nc(Nc2ccc3c(c2)CC(=O)N3)ncc1C(F)(F)F)S(C)(=O)=O = 0.426
COc1ccc2c3n(c(=NC(=O)c4cccnc4)nc2c1OC)CCN3 = 0.166
CCOc1ccc(Nc2nc(-c3c(C)nc4ccccn34)cs2)cc1 = 0.983
Cc1oc(S(=O)(=O)N2CCCCC2)cc1NC(=O)Nc1ccccc1 = -0.000234
Oc1cccc(-c2nc(N3CCOCC3)c3oc4ncccc4c3n2)c1 = 0.627
Cc1nn(-c2ccccc2)c(C)c1C=NN1CCN(Cc2ccccc2)CC1 = -0.0247
Cc1ccc(C(=O)N(CCCN)[C@@H](c2nc3cc(Cl)ccc3c(=O)n2Cc2ccccc2)C(C)C)cc1 = 0.98
